Target: T1, human TMEM106B (human, UniProt Q9NUM4 2-274)
T1 construct: Full-length, on transiently transfected HEK293 cells, or natively expressed on HeLa, U251 and A549 cells; also called huTMEM106B; huTMEM
Test: FACS HEK+huTMEM, 10 ug/ml;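 note: purified mouse IgG antibodies at 10 µg/ml bound to HEK293 cells transiently expressing human TMEM106B, measured by flow cytometry as median fluorescence intensity of propidium iodide negative live cells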
Decide using MFI: a value greater than or equal to 40000 is Y, a smaller one is N.

[[record]]
binder = "anti-TMEM106B antibody TM-17 (antibody, V domains shown) VH: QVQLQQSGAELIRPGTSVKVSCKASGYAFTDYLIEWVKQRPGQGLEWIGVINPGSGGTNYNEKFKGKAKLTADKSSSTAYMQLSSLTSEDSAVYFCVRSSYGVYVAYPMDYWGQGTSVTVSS VL: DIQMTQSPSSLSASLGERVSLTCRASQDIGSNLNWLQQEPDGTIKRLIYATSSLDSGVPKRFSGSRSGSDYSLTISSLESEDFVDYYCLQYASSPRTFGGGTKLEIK"
class = "N"

[[record]]
binder = "anti-TMEM106B antibody TM-28 (antibody, V domains shown) VH: EVQLQQSGPVLVKPGPSVKISCMASVFTFNDYYIHWVKQSHGKSLEWIGLVYPYNGGTNYNQNFKGKATLTVDTSSRTAYMELNSLTSEDSAVYYCARSYFSNPIGYWGQGTLVTVSE VL: DIVMTQSPSSLSVSVGEKVTVSCKSSQSLLNSGNQKNYLAWYQQKPGQPPKLLIYGASTRESGVPDRFTGSGSGTDFTLTISSVQAEDLAVYYCQNDHSYPLTFGAGTKLELK"
class = "Y"

[[record]]
binder = "anti-TMEM106B antibody TM-35 (antibody, V domains shown) VH: QVQLQQSGPELVRPGTSVKISCKAPGYTFTRHWMQWVRQRPGQGLEWIGEILPGSNNIYYNEKVKGKATLTVDTSSSTSYMQLSSLTSEDSAVYFCARSLYDYDGVFAYWGQGTLVTVSA VL: DVLMTQIPLSLPVSLGDQASISCRSSQSIVHRNGNTYLEWYLQKPGQSPKLLIYKVSNRFSGVPDRFSGSGSGTDFTLKISRVEAEDLGVYYCFQGSHVPYTFGGGTKLEIK"
class = "Y"

[[record]]
binder = "anti-TMEM106B antibody TM-16 (antibody, V domains shown) VH: EVQLQQSGAELVRPGASVKLSCTTSGFNIKDYYMHWVKQRTEQGLEWIGRIDPEDGETKYAPEFQGKATITSDTSSNTAFLQLSSLTSEDTAVYYCASSQPFTYWGQGTLVTVSA VL: QIVLTQSPAIMSASPGEKLTMTCSASSSLNYMYWYQQKPGSSPRLLIYDTSNLASGVPVRFSGSGSGTSYSLTISRMEAEDGATYYCQQWTSFPPTFGAGTKLELK"
class = "N"


Query: Could you please find out whether anti-TMEM106B antibody TM-30 (antibody, V domains shown, mouse IgG from hybridoma) VH: QVQLQQSGPELVKPGASVKLSCKASDNTFTNYDVNWVRQRPGQGLEWIGWIYPRDGTTIYNEKFKGRATLTVDTSSSTAYMELHSLTSEDSAVFFCARTLPQAMDYWGQGTSVTVSS VL: DVLMTQSPLSLPVSLGDQVSISCRSSQTIVHRNGNTYLEWYLQKPGQSPKLLIYKVSNRFSGVPDRFSGSGSGTDFTLKISRVEAEDLGVYYCFQGSHLPWTFGGGTKLEIK has MFI that meets 40000 or exceeds it?
Result: Y

Query: Could you please find out whether anti-TMEM106B antibody TM-1 (antibody, V domains shown) VH: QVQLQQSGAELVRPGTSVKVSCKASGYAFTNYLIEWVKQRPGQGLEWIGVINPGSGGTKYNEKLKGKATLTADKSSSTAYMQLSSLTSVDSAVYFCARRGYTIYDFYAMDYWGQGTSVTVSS VL: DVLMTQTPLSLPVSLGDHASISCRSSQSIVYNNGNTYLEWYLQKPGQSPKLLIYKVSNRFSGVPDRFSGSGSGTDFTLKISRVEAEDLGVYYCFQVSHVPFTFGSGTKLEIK has MFI that meets 40000 or exceeds it?
Result: N

Query: Could you please find out whether anti-TMEM106B antibody TM-19 (antibody, V domains shown) VH: DVQLQQSGAELVRPGASVKLSCTASGFNIKDYYMYWVKQRPEQGLEWIGRIDPEDGDTENAPKFRGMATMTADTSSNTAYLQLNSLTSEDTAVYYCTTRIGNLYHVMDYWGHGTSVTVSS VL: DVLMTQTPLSLPVSLGDQASISCRSSQSIVHSNGNTYLEWYLQKPGQAPKLLIDKVFNRFSGVPDRFSGSGSGTDFTLKISRVEAEDLGVYYCFQGSHVPFTFGSGTKLEIK has MFI that meets 40000 or exceeds it?
Result: Y

Query: Could you please find out whether anti-TMEM106B antibody TM-45 (antibody, V domains shown) VH: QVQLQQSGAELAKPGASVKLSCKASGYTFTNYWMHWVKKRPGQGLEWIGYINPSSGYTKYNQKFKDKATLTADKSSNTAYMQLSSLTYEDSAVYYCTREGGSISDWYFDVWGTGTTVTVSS VL: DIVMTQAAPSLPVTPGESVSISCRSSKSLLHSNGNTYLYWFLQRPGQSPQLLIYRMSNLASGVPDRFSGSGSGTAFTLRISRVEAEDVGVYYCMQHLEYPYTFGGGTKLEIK has MFI that meets 40000 or exceeds it?
Result: Y

Query: Could you please find out whether anti-TMEM106B antibody TM-50 (antibody, V domains shown, mouse IgG from hybridoma) VH: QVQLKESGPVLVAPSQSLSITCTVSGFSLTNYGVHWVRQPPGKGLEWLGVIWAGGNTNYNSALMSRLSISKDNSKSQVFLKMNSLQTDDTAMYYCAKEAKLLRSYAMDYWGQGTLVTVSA VL: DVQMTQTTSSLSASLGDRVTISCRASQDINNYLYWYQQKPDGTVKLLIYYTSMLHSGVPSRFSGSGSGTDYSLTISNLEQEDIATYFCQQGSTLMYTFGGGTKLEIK has MFI that meets 40000 or exceeds it?
Result: N

Query: Could you please find out whether anti-TMEM106B antibody TM-48 (antibody, V domains shown) VH: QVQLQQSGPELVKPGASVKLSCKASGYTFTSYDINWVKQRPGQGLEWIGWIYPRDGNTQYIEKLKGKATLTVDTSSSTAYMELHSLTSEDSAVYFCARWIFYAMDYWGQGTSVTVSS VL: DVLMTQTPLSLPVSLGNQASISCRSSQSIVHGNGNTYLEWYLQKPGQSPKLLIYKVSNRFSGVPDRFSGSGSGTDFTLKISRVEAEDLGVYYCFQGSHLPYTFGGGTKLEIK has MFI that meets 40000 or exceeds it?
Result: N
